From: paper PMC10397247

Listed binders paired with reported interaction score
# measurement-target: T1, 4H3381-AA
# T1 chain: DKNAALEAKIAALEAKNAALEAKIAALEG
# experimental-details: two-hybrid library CCmax;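 further: natural log of median RNA to DNA barcode read ratio; higher means stronger binding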
# experimental-setup: mean of both orientations
quantity-name: interaction score

• DEIAALEAENAALEAKIAALKAKIAALKG [4H174-AA] = -1.38
• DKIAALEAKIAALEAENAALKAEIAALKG [4H2330-AA] = -1.67
• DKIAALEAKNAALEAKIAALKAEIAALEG [4H2473-AA] = -1.15
• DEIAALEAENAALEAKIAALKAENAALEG [4H171-AA] = -1.57
• DENAALKAEIAALKAKIAALEAKNAALEG [4H1639-AA] = -1.7
• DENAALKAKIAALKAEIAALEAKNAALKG [4H1864-AA] = -1.63
• DENAALKAENAALKAEIAALKAEIAALKG [4H1738-AA] = -1.45
• DKIAALKAKNAALKAEIAALEAEIAALEG [4H3009-AA] = -1.54
• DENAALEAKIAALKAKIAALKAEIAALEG [4H1385-AA] = -1.28
• DKIAALKAEIAALKAENAALKAEIAALEG [4H2649-AA] = -1.34
• DEIAALEAKIAALEAKNAALEAKIAALKG [4H310-AA] = 0.757
• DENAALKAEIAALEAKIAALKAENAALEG [4H1579-AA] = -1.48
